Biological target: GPRTase from G. lamblia (Giardia duodenalis, UniProt Q24973)
Sequence (Q24973 1-230): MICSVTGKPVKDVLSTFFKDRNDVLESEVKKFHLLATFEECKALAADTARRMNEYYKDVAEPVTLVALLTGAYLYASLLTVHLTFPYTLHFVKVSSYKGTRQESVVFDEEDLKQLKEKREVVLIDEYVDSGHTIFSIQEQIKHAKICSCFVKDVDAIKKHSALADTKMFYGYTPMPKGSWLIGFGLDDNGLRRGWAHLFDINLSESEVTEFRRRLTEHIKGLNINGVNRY
Test: Enzyme assay, [14C]-guanine to GMP conversion, G. lamblia GPRTase
Assay type: biochemical
Conditions: Table 4, compounds of Formula II; recombinant enzyme, 10% DMSO, 37° C., 5 min, pH 6.8; read-out: IC50 GLG (GPRTase from G. lamblia)
Endpoint: IC50 (µM)

P: COc1ccc(Cl)cc1NC(=O)c1ccc2c(c1)C(=O)OC2=O
Q: COc1ccc([N+](=O)[O-])cc1NC(=O)c1ccc2c(c1)C(=O)OC2=O
Kindly identify the item with the lower IC50 figure among these two: P and Q // output: label of the selected item
Q
